All values here come from ChEMBL document CHEMBL3885861.

Species: Rattus norvegicus
Experiment: Open TG-GATES - Regimen: Daily Repeat
Format: toxicity, organism-based, Sprague-Dawley
Parameters: regimen Daily Repeat, gender Male, age 6 weeks
Conditions: in vivo, po, 0 mg/kg, […], tissue Blood, route gavage, dose level Control, time 28 day
Values of Mono strictly less than 2% map to criterion met, and values of at least 2% map to criterion not met.

1) CN/C(=N/CCSCc1nc[nH]c1C)NC#N [CIMETIDINE]: criterion not met
2) CNC(=C[N+](=O)[O-])NCCSCc1ccc(CN(C)C)o1 [RANITIDINE]: criterion not met
3) COC(=O)C1=C(C)NC(C)=C(C(=O)OC)C1c1ccccc1[N+](=O)[O-] [NIFEDIPINE]: criterion not met
4) CCOc1ccc(NC(C)=O)cc1 [PHENACETIN]: criterion not met
5) CN1C(=O)CCS(=O)(=O)C1c1ccc(Cl)cc1 (stereo not drawn) [CHLORMEZANONE]: criterion not met
6) NC1=NC(=O)C(c2ccccc2)O1 (stereo not drawn) [PEMOLINE]: criterion not met
7) CCCc1cc(=O)[nH]c(=S)[nH]1 [PROPYLTHIOURACIL]: criterion not met
8) O=C(OC[C@H]1O[C@@H](OC(=O)c2cc(O)c(O)c(OC(=O)c3cc(O)c(O)c(O)c3)c2)[C@H](OC(=O)c2cc(O)c(O)c(OC(=O)c3cc(O)c(O)c(O)c3)c2)[C@@H](OC(=O)c2cc(O)c(O)c(OC(=O)c3cc(O)c(O)c(O)c3)c2)[C@@H]1OC(=O)c1cc(O)c(O)c(OC(=O)c2cc(O)c(O)c(O)c2)c1)c1cc(O)c(O)c(OC(=O)c2cc(O)c(O)c(O)c2)c1 [TANNIC ACID]: criterion not met
9) Nc1c2c(nc3ccccc13)CCCC2 [TACRINE]: criterion met
10) CC(C)NNC(=O)c1ccncc1 [IPRONIAZID]: criterion met

We now examine a further compound.
**Query** Find out if reported Mono for Brc1ccccc1 [BROMOBENZENE] is less than 2%
**Result** criterion not met

----------
Species: Rattus norvegicus
Experiment: Open TG-GATES - Regimen: Daily Repeat
Type: toxicity, organism-based, Sprague-Dawley
Set-up: regimen Daily Repeat, gender Male, age 6 weeks
Settings: in vivo, po, 0 mg/kg, […], tissue Plasma, route gavage, dose level Control, time 14 day
Reported GLC values for a set of compounds
Enter your answer as a number in mg/dL; do not include the unit.

Below: 4 compounds and their reported GLC.
1) CCCc1cc(=O)[nH]c(=S)[nH]1: 183.6
2) COC(=O)C1=C(C)NC(C)=C(C(=O)OC)C1c1ccccc1[N+](=O)[O-]: 184
3) CN(C)CCC(c1ccc(Cl)cc1)c1ccccn1 (stereo not given): 187.2
4) CNC(=C[N+](=O)[O-])NCCSCc1ccc(CN(C)C)o1: 205.2

**Query** What GLC value was documented for this compound, "Nc1c2c(nc3ccccc13)CCCC2" ?
**Result** 192.8

----------
Species: Rattus norvegicus
Assay: Open TG-GATES - Regimen: Daily Repeat
Type: toxicity, organism-based, Sprague-Dawley
Parameters: regimen Daily Repeat, gender Male, age 6 weeks
Conditions: in vivo, po, 0 mg/kg, […], tissue Liver, route gavage, dose level Control, time 28 day
Reported LIVER values for a set of molecules
Enter your answer as a number in g; do not include the unit.

1. Nc1c2c(nc3ccccc13)CCCC2: 15.5

Then this molecule:
**Query** What LIVER value was documented for this molecule, CN1C(=O)CCS(=O)(=O)C1c1ccc(Cl)cc1 (stereo not given) ?
**Result** 16
